- test-system: OCA2; also: reference of the scale not given here
- assay-method-text: pooled miR-30 sensor sort-seq; sequence = guide strand
- condition-details: shRNA
reported-property: sensor-assay potency score (higher = more potent)

TTTTCTTCTTCAAACAGTGGGG : -0.306
TTTGTGAAGATCACTTCTGCAA : 0.623
TTATAAAGCTTTCTGTTCCAGT : -0.265
TTGTTCTCCAACATATTCTATT : -1.21
TTGTCTTGGATCAAGGTTGAGC : -0.397
TAACACATCCCAACAGTGCAGG : -0.397
TTTGTTCTCCAACATATTCTAT : -1.25
TTGAGCACCTCACACAACCTTA : -0.642
